assay: Inhibition of Schizosaccharomyces pombe HTA in presence of 100 uM acetyl-CoA substrate
recorded-endpoint: pIC50
Conceptually, pIC50 converts a concentration in mol/L into minus its log10.

Please report the recorded pIC50 for NC(=O)c1cccc2c1NC(C(=O)O)C1CC=CC21 (stereo unspecified) .
3.54
